# System: A549 cells
# assay-procedure: In vitro growth inhibition (resazurin, 72 h), A549
# Assay type: cell-based
# test-settings: Homo sapiens, mean ± SE
Here the recorded IC50 is given for each entry.
Express it in nM; write the number only.

Solved cases (8 shown):
{"compound": "COc1cc2oc(C(=O)c3ccccc3OC)c(C)c2cc1/C=C/C(=O)NO", "IC50 [nM]": 168}
{"compound": "COc1cc2oc(C(=O)c3ccccc3)c(C)c2cc1C#CC(=O)NO [Compound 11g]", "IC50 [nM]": 206}
{"compound": "COc1cc2oc(C(=O)c3ccc(OC)c(OC)c3)c(C)c2cc1/C=C/C(=O)NO", "IC50 [nM]": 187}
{"compound": "COc1cc(OC)cc(C(=O)c2oc3cc(OC)c(C#CC(=O)NO)cc3c2C)c1 [Compound 11c]", "IC50 [nM]": 45.3}
{"compound": "COc1cc2oc(C(=O)c3ccccc3OC)c(C)c2cc1C#CC(=O)NO [Compound 11f]", "IC50 [nM]": 276}
{"compound": "COc1cccc(C(=O)c2oc3cc(OC)c(C#CC(=O)NO)cc3c2C)c1 [Compound 11e]", "IC50 [nM]": 94.4}
{"compound": "COc1ccc(C(=O)c2oc3cc(OC)c(/C=C/C(=O)NO)cc3c2C)cc1", "IC50 [nM]": 222}
{"compound": "COc1ccc2c(C)c(C(=O)c3cc(OC)c(OC)c(OC)c3)oc2c1 [TR187, reference compound]", "IC50 [nM]": 24}

## Input Requested field: IC50. Item: COc1ccc(C(=O)c2oc3cc(OC)c(C#CC(=O)NO)cc3c2C)cc1 [Compound 11d]
## Output 5.07

## Input Another: COc1cc2oc(C(=O)c3ccc(OC)c(OC)c3)c(C)c2cc1C#CC(=O)NO [Compound 11b]
## Output 972

## Input Another: COc1cc2oc(C(=O)c3cc(OC)c(OC)c(OC)c3)cc2cc1/C=C/C(=O)NO
## Output 304

## Input Another: COc1cc(OC)cc(C(=O)c2oc3cc(OC)c(/C=C/C(=O)NO)cc3c2C)c1
## Output 43.9

* * *

# System: HT-29 cells
# assay-procedure: Cell cycle analysis (PI, flow cytometry)
# Type: cell-based, human
# test-settings: 250 nM for 24 h (figure legend)
Here the recorded Percentage of HT-29 cells in S phase is given for each entry.

Solved cases (3 shown):
{"compound": "COc1ccc(/C=C\\c2cc(OC)c(OC)c(OC)c2)cc1O [CA-4, combretastatin A-4, reference compound]", "Percentage of HT-29 cells in S phase": "30.79%"}
{"compound": "CC(/C=C/C(=O)NO)=C\\[C@@H](C)C(=O)c1ccc(N(C)C)cc1 [TSA, Trichostatin, reference compound]", "Percentage of HT-29 cells in S phase": "17.44%"}
{"compound": "COc1cc2oc(C(=O)c3ccccc3)c(C)c2cc1/C=C/C(=O)NO", "Percentage of HT-29 cells in S phase": "24.35%"}

## Input Requested field: Percentage of HT-29 cells in S phase. Item: COc1cc2oc(C(=O)c3cc(OC)c(OC)c(OC)c3)cc2cc1/C=C/C(=O)NO
## Output 4.79%

## Input Another: COc1cc2oc(C(=O)c3ccccc3OC)c(C)c2cc1/C=C/C(=O)NO
## Output 6.34%

* * *

# Test system: HeLa cells
# assay-procedure: In vitro growth inhibition (resazurin, 72 h), HeLa
# Assay type: cell-based
# test-settings: Homo sapiens, concentration inhibiting tumor cell proliferation by 50%, mean ± SE
Lab note: anything with IC50 below 5 nM is marked t; values at 5 nM or higher are marked f.

{"molecule": "COc1cc(OC)cc(C(=O)c2oc3cc(OC)c(C#CC(=O)NO)cc3c2C)c1 [Compound 11c]", "assigned-category": "f"}

## Input Please determine if COc1cc2oc(C(=O)c3ccccc3)c(C)c2cc1C#CC(=O)NO [Compound 11g] is below 5 nM in terms of IC50.
## Output f

## Input Another: COc1cc(OC)cc(C(=O)c2oc3cc(OC)c(/C=C/C(=O)NO)cc3c2C)c1
## Output t

## Input Another: COc1cccc(C(=O)c2oc3cc(OC)c(C#CC(=O)NO)cc3c2C)c1 [Compound 11e]
## Output f

## Input Another: C#Cc1cc2c(C)c(C(=O)c3cc(OC)c(OC)c(OC)c3)oc2cc1OC
## Output f

## Input Another: COc1cc2oc(C(=O)c3cc(OC)c(OC)c(OC)c3)c(C)c2cc1/C=C/C(=O)NO
## Output f

## Input Another: COc1cc2oc(C(=O)c3ccccc3OC)c(C)c2cc1/C=C/C(=O)NO
## Output t

## Input Another: COc1ccc(C(=O)c2oc3cc(OC)c(/C=C/C(=O)NO)cc3c2C)cc1
## Output f

* * *

Here the recorded IC50 is given for each entry.
# measured-on: human recombinant HDAC10 (Homo sapiens, UniProt Q969S8)
# Construct: purchased BPS Bioscience 50060
# Sequence (Q969S8 whole entry): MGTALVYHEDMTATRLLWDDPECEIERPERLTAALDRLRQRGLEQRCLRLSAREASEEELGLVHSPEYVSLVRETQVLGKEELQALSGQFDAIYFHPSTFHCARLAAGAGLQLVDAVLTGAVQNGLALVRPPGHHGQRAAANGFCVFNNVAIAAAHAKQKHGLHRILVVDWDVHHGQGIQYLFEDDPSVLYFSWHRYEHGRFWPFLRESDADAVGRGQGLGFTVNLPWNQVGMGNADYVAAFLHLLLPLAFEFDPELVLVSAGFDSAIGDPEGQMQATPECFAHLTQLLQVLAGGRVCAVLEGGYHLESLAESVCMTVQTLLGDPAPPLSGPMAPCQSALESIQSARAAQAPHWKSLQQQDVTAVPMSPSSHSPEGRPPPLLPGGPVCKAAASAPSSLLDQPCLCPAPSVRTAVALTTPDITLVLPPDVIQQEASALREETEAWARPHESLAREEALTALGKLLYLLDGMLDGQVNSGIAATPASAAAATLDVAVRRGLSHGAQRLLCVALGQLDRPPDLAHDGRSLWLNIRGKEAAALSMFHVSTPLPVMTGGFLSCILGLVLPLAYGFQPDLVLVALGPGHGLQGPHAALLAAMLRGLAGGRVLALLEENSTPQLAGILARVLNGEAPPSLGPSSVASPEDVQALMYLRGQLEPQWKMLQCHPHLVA
# assay-procedure: HDAC isoform inhibition, fluorogenic substrate, HDAC10
# Format: biochemical
# test-settings: mean ± SE, read-out: IC50 (µM) hHDAC10

Solved cases (2 shown):
{"molecule": "COc1cc2oc(C(=O)c3cc(OC)c(OC)c(OC)c3)c(C)c2cc1C#CC(=O)NO [Compound 11a]", "measured-on": "human recombinant HDAC10 (Homo sapiens, UniProt Q969S8)", "result": "> 30 µM"}
{"molecule": "COc1cccc(C(=O)c2oc3cc(OC)c(/C=C/C(=O)NO)cc3c2C)c1", "measured-on": "human recombinant HDAC10 (Homo sapiens, UniProt Q969S8)", "result": "> 30 µM"}

## Input Requested field: IC50. Item: COc1cc(OC)cc(C(=O)c2oc3cc(OC)c(/C=C/C(=O)NO)cc3c2C)c1
## Output > 30 µM

* * *

observable: melting point

Solved cases (5 shown):
{"compound": "COc1cc(C(=O)c2oc3ccc(/C=C/C(=O)NO)cc3c2C)cc(OC)c1OC", "melting point": "188 to 190 °C"}
{"compound": "COc1cc2oc(C(=O)c3ccccc3OC)c(C)c2cc1C#CC(=O)NO [Compound 11f]", "melting point": "243 to 245 °C"}
{"compound": "COc1cc2oc(C(=O)c3ccccc3)c(C)c2cc1C#CC(=O)NO [Compound 11g]", "melting point": "205 to 206 °C"}
{"compound": "COc1cc2oc(C(=O)c3ccc(OC)c(OC)c3)c(C)c2cc1C#CC(=O)NO [Compound 11b]", "melting point": "276 to 277 °C"}
{"compound": "COc1cc2oc(C(=O)c3ccc(OC)c(OC)c3)c(C)c2cc1/C=C/C(=O)NO", "melting point": "198 to 199 °C"}

## Input Requested field: melting point. Item: COc1cc2oc(C(=O)c3cc(OC)c(OC)c(OC)c3)c(C)c2cc1C#CC(=O)NO [Compound 11a]
## Output 268 to 270 °C

## Input Another: C#Cc1cc2c(C)c(C(=O)c3cc(OC)c(OC)c(OC)c3)oc2cc1OC
## Output 186 to 188 °C

## Input Another: COc1ccc(C(=O)c2oc3cc(OC)c(C#CC(=O)NO)cc3c2C)cc1 [Compound 11d]
## Output 222 to 224 °C

## Input Another: COc1cc(OC)cc(C(=O)c2oc3cc(OC)c(C#CC(=O)NO)cc3c2C)c1 [Compound 11c]
## Output 248 to 250 °C

## Input Another: COc1ccc(C(=O)c2oc3cc(OC)c(/C=C/C(=O)NO)cc3c2C)cc1
## Output 168 to 170 °C

## Input Another: COc1cccc(C(=O)c2oc3cc(OC)c(/C=C/C(=O)NO)cc3c2C)c1
## Output 100 to 102 °C

## Input Another: COc1cc(OC)cc(C(=O)c2oc3cc(OC)c(/C=C/C(=O)NO)cc3c2C)c1
## Output 170 to 172 °C

## Input Another: COc1cc(C(=O)c2oc3ccc(C#CC(=O)NO)cc3c2C)cc(OC)c1OC [Compound 11h]
## Output 254 to 256 °C

* * *

Here the recorded IC50 is given for each entry.
# measured-on: human recombinant HDAC1 (Homo sapiens, UniProt Q13547)
# Construct: purchased BPS Bioscience 50051
# Sequence (Q13547 whole entry): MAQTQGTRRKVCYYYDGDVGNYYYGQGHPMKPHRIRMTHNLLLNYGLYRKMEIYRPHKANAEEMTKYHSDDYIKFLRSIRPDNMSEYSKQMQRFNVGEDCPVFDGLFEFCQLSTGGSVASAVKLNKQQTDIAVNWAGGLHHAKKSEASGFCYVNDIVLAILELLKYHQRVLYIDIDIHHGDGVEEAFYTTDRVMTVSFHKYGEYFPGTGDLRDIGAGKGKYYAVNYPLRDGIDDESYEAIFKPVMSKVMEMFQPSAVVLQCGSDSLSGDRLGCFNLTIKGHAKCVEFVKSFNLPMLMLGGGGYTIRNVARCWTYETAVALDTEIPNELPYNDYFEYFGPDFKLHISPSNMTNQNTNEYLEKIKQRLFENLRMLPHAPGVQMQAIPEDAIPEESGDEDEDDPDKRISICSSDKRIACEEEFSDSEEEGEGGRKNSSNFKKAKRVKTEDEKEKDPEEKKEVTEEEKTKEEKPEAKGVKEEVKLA
# assay-procedure: HDAC isoform inhibition, fluorogenic substrate, HDAC1
# Assay type: biochemical
# test-settings: mean ± SE, read-out: IC50 (µM) hHDAC1
Express it in µM; write the number only.

{"compound": "COc1cc2oc(C(=O)c3cc(OC)c(OC)c(OC)c3)c(C)c2cc1C#CC(=O)NO [Compound 11a]", "unit-annotation": "µM", "numeric-result": 14.1}

In the following, a different compound is considered.
## Input Requested field: IC50. Item: COc1cccc(C(=O)c2oc3cc(OC)c(/C=C/C(=O)NO)cc3c2C)c1
## Output 13.4
